# IC50 annotations
target: binding of His-XIAP(BIR2)-avi fusion protein to GST-RIPK2 fusion protein (RIPK2/XIAP) (Homo sapiens); construct: made in house; host or cells: baculovirus infected Sf9 cells; assay: RIPK2-XIAP binding competition PPI assay (TR-FRET); conditions: RIPK2/XIAP binding competition PPI assay; read-out: PPI IC50 bin

- compound: "COc1cc2ncc(-c3cccc(NS(=O)(=O)C4CCOCC4)c3)n2cc1S(=O)(=O)C(C)(C)C"
  IC50: "2.5 to 20 nM"
- compound: "CC(C)(C)S(=O)(=O)c1cn2c(-c3cc(F)c(N)nc3F)cnc2cc1OC1COC1"
  IC50: "2.5 to 20 nM"
- compound: "COc1cc2ncc(-c3cc(F)c(OC)c(NS(=O)(=O)c4cnn(C)c4)c3)n2cc1C1(F)CCN(C)CC1"
  IC50: "< 1 nM"
- compound: "CC(C)(C)S(=O)(=O)c1cn2c(-c3cnc4nccn4c3)cnc2cc1OCCO"
  IC50: "> 20 nM"
- compound: "C[C@H](CO)COc1cc2ncc(-c3cc(Cl)c(N)nc3F)n2cc1S(=O)(=O)C(C)(C)C"
  IC50: "< 1 nM"
- compound: "COc1cc2ncc(-c3cccc(NS(=O)(=O)C4CCN(C(=O)OC(C)(C)C)CC4)c3)n2cc1S(=O)(=O)C(C)(C)C"
  IC50: "> 20 nM"
- compound: "CCCS(=O)(=O)Nc1cc(-c2cnc3cc(OC)c(S(=O)(=O)N4CCOCC4)cn23)cc(F)c1OC"
  IC50: "1 to 2.5 nM"

* * *

biological target: binding of His-XIAP(BIR2)-avi fusion protein to GST-RIPK2 fusion protein (RIPK2/XIAP) (Homo sapiens, UniProt O43353); construct: made in house; host or cells: baculovirus infected Sf9 cells; assay: RIPK2-XIAP binding competition PPI assay (TR-FRET); conditions: RIPK2/XIAP binding competition PPI assay, Amax; read-out: PPI Amax bin
Sequence (O43353 1-310 limits assumed): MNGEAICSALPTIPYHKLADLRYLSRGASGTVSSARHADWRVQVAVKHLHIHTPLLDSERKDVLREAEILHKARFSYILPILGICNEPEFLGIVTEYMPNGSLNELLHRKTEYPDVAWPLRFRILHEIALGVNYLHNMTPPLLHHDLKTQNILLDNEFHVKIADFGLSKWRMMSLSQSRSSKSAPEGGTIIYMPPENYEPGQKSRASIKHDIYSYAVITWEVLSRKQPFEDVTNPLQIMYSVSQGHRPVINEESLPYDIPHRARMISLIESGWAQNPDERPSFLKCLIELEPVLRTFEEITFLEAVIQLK
measured-metric: Emax

- compound: "COc1cn2ncc(-c3cc(F)c(OC)c(NS(=O)(=O)C4(CO)CC4)c3)c2cc1S(=O)(=O)C(C)(C)C"
  value-observed: "> 80%"
- compound: "COc1cn2ncc(-c3cc(F)c(N)nc3F)c2cc1C1(O)CCN(C)CC1"
  value-observed: "> 80%"
- compound: "CC1(C)CNc2ncc(-c3cnc4cc(OCCO)c(S(=O)(=O)C(C)(C)C)cn34)cc21"
  value-observed: "< 30%"
- compound: "COc1cc2ncc(-c3ccc4c(N)nn(C)c4c3)n2cc1S(=O)(=O)C(C)(C)C"
  value-observed: "< 30%"
- compound: "COc1cc2ncc(-c3cc(F)c(N)nc3F)n2cc1S(=O)(=O)C1(C)CCN(C(=O)OC(C)(C)C)CC1"
  value-observed: "> 80%"
- compound: "COc1ccc(-c2cnc3cc(OC)c(S(=O)(=O)C(C)(C)C)cn23)cc1NS(=O)(=O)c1cnn(C)c1"
  value-observed: "> 80%"
- compound: "COc1cc2ncc(-c3ccc4c(N)nccc4c3)n2cc1S(=O)(=O)C(C)(C)C"
  value-observed: "< 30%"
- compound: "CC(C)(C)S(=O)(=O)c1cn2c(-c3cc(Cl)c(N)nc3F)cnc2cc1CCCO"
  value-observed: "> 80%"
- compound: "COc1cc2ncc(-c3cnn(-c4ccccc4)c3F)n2cc1S(=O)(=O)C(C)(C)C"
  value-observed: "< 30%"
- compound: "CC(C)(C)S(=O)(=O)c1cn2c(-c3cc(F)c(N)nc3F)cnc2cc1OCC(O)CO (stereo not shown)"
  value-observed: "> 80%"
- compound: "CC(C)(C)S(=O)(=O)c1cn2c(-c3cnc4cn[nH]c4c3)cnc2cc1OCCO"
  value-observed: "< 30%"
- compound: "C[C@@H](O)COc1cn2ncc(-c3cc(Cl)c(N)nc3F)c2cc1S(=O)(=O)C(C)(C)C"
  value-observed: "> 80%"
- compound: "CC(C)(C)S(=O)(=O)c1cn2c(-c3cc(F)c(N)nc3F)cnc2cc1OCCCO"
  value-observed: "> 80%"
- compound: "COc1cc2ncc(-c3cc(F)c(OC)c(NS(=O)(=O)c4csc(C)n4)c3)n2cc1S(=O)(=O)C(C)(C)C"
  value-observed: "55 to 80%"
- compound: "COc1cc2ncc(-c3cc(F)c(N)nc3F)n2cc1S(=O)(=O)C(C)(C)CN1CCOCC1"
  value-observed: "> 80%"
- compound: "CCCS(=O)(=O)Nc1cc(-c2cnc3cc(OC)c(C(=O)N(C)C(C)C)cn23)cc(F)c1OC"
  value-observed: "55 to 80%"

* * *

tested on: NF-κB pathway (SEAP) in THP1-Dual cells; experiment: THP-1 Dual cell SEAP assay (L18-MDP stimulated); assay type: cell-based; details: read-out: NF-κB THP1 IC50 bin

- compound: "CC(F)(CO)COc1cc2ncc(-c3cc(Cl)c(N)nc3F)n2cc1S(=O)(=O)C(C)(C)C (single isomer, unassigned)"
  IC50: "0.05 to 0.25 µM"
- compound: "CC(F)(CO)COc1cc2ncc(-c3cc(F)c(N)nc3F)n2cc1S(=O)(=O)C(C)(C)C (single isomer, unassigned)"
  IC50: "0.05 to 0.25 µM"
- compound: "COc1cc2ncc(-c3cc(F)c(OC)c(NC(C)c4cnn(C)c4)c3)n2cc1S(=O)(=O)C(C)(C)C (single isomer, unassigned) [Example 302]"
  IC50: "< 0.05 µM"
- compound: "COc1cc2ncc(-c3cc(F)c(OC)c(NC(C)c4cnn(C)c4)c3)n2cc1S(=O)(=O)C(C)(C)C (single isomer, unassigned) [Example 303]"
  IC50: "0.25 to 1 µM"
- compound: "COc1cc2ncc(-c3cc(NS(=O)(=O)c4cnn(C)c4)c(OC)c(OC)c3)n2cc1N1CC(C)CC1=O (single isomer, unassigned) [Example 274]"
  IC50: "0.25 to 1 µM"
- compound: "COc1cc2ncc(-c3cc(NS(=O)(=O)c4cnn(C)c4)c(OC)c(OC)c3)n2cc1N1CC(C)CC1=O (single isomer, unassigned) [Example 275]"
  IC50: "0.05 to 0.25 µM"

* * *

target: binding of His-XIAP(BIR2)-avi fusion protein to GST-RIPK2 fusion protein (RIPK2/XIAP) (Homo sapiens, UniProt O43353); construct: made in house; host or cells: baculovirus infected Sf9 cells; assay: RIPK2-XIAP binding competition PPI assay (TR-FRET); settings: RIPK2/XIAP binding competition PPI assay, Amax; read-out: PPI Amax bin
measured-metric: Emax

- compound: "COc1cc2ncc(-c3cc(F)c(OC)c(NS(=O)(=O)c4cnc(O)nc4)c3)n2cc1S(=O)(=O)C(C)(C)C"
  value-observed: "55 to 80%"
- compound: "CC(C)(C)S(=O)(=O)c1cn2c(-c3cc(F)c(N)nc3F)cnc2cc1OCCN1CCOCC1"
  value-observed: "> 80%"
- compound: "C[C@@H](CO)COc1cc2ncc(-c3cc(F)c(N)nc3F)n2cc1S(=O)(=O)C(C)(C)C"
  value-observed: "> 80%"
- compound: "CC(C)(C)S(=O)(=O)c1cn2c(-c3cnc4[nH]ccc4c3)cnc2cc1OCCO"
  value-observed: "> 80%"
- compound: "COc1cc2ncc(-c3cc(F)c(OC)c(NS(=O)(=O)c4cc(C)no4)c3)n2cc1S(=O)(=O)C(C)(C)C"
  value-observed: "< 30%"
- compound: "CCCS(=O)(=O)Nc1cc(-c2cnc3cc(OC)c(S(=O)(=O)C(C)(C)C)cn23)cc(-n2cccn2)c1"
  value-observed: "< 30%"
- compound: "CC(C)(C)S(=O)(=O)c1cn2c(-c3cc(F)c(N)nc3F)cnc2cc1OC1CCN(CCO)C1 (stereo not shown)"
  value-observed: "> 80%"
- compound: "CC(C)(C)S(=O)(=O)c1cn2c(-c3cc4cc[nH]c4cc3F)cnc2cc1OCCO"
  value-observed: "55 to 80%"
- compound: "CC(C)(C)S(=O)(=O)c1cc2c(-c3cc(Cl)c(N)nc3F)cnn2cc1OCC(O)CO (stereo not shown)"
  value-observed: "> 80%"
- compound: "COc1cc2ncc(-c3cccc(NS(=O)(=O)C4CCNCC4)c3)n2cc1S(=O)(=O)C(C)(C)C"
  value-observed: "> 80%"
- compound: "COCCN1CCC(C)(S(=O)(=O)c2cn3c(-c4cc(F)c(N)nc4F)cnc3cc2OC)CC1"
  value-observed: "> 80%"
- compound: "CC(C)(C)S(=O)(=O)c1cn2c(-c3cc(F)c(N)nc3F)cnc2cc1OCC1(O)COC1"
  value-observed: "> 80%"
- compound: "CC(C)(C)S(=O)(=O)c1cn2c(-c3cc4c(F)c[nH]c4nc3F)cnc2cc1OCCO"
  value-observed: "> 80%"
- compound: "CC(C)(C)S(=O)(=O)c1cn2c(-c3ccc4[nH]ccc4c3)cnc2cc1OCCO"
  value-observed: "55 to 80%"
- compound: "CC(C)(C)S(=O)(=O)c1cn2c(-c3cnc4[nH]cc(F)c4c3)cnc2cc1OCCO"
  value-observed: "> 80%"
- compound: "CCS(=O)(=O)Nc1cc(-c2cnn3cc(OC)c(N4C(=O)OCC4(C)C)nc23)cc(F)c1OC"
  value-observed: "> 80%"
